TGT: PI3Kδ (Homo sapiens, UniProt O00329)
Construct: The protein is full length and co-expressed with untagged PIK3R1; GST; purchased Invitrogen PV5274
Sequence (O00329 whole entry): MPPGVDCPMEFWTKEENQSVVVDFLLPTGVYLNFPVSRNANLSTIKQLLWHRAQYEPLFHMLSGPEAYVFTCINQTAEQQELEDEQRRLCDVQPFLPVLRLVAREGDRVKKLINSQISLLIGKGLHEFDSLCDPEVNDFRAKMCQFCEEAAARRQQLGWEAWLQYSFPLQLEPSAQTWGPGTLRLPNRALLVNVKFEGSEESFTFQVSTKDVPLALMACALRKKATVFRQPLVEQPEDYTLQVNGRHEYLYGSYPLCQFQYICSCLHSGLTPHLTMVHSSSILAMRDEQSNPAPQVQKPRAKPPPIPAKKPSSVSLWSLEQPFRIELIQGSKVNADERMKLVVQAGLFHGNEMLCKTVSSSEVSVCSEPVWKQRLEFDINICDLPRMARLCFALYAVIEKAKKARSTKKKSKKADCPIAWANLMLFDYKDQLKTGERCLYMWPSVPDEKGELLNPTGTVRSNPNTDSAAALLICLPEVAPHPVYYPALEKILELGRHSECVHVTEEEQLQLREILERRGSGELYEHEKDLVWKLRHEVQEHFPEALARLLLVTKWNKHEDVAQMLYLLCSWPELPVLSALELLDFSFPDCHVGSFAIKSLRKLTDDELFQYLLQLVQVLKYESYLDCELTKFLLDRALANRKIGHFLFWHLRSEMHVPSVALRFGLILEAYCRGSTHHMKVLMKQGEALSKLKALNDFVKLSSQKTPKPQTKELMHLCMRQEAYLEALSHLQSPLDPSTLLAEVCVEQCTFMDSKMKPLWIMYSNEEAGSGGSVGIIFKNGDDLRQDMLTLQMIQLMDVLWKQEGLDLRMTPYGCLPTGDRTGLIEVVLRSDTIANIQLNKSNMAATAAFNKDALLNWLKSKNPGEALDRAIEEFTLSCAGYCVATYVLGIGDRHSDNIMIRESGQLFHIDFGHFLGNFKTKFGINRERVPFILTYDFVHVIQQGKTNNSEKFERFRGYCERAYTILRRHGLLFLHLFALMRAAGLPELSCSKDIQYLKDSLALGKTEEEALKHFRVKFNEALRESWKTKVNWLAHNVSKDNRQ
Sequence (P27986 whole entry partner): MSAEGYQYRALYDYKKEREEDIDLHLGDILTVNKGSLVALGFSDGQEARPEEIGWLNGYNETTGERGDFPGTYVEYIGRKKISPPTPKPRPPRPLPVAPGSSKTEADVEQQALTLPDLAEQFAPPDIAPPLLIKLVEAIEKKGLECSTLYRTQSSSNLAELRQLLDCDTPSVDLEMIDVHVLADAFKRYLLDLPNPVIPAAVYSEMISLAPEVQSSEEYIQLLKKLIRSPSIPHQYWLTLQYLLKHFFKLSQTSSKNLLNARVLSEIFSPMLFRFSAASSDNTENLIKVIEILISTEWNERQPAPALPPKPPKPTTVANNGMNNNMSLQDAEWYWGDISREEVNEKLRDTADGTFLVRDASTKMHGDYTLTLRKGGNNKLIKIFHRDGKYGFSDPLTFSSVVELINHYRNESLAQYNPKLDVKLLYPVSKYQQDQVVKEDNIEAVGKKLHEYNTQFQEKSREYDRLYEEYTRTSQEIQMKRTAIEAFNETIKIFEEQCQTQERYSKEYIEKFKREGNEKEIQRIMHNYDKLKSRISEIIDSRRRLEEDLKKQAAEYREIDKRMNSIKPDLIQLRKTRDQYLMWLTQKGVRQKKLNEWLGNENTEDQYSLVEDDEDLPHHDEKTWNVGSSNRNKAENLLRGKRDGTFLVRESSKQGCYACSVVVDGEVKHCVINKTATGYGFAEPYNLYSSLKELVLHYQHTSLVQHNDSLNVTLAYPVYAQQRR
ASSAY COMMENT: PI3Kδ inhibition, modified PIK3CD Adapta TR-FRET assay
Type: biochemical
ASSAY CONTEXT: recombinant GST-tagged full length PIK3CD co-expressed with PIK3R1 (p85α); 2 μM ATP, 50 μM PIP2; read-out: PI3Kδ Inhibition (pIC50) (converted)
MEASURE NAME: IC50 (µM)
Only the number, expressed in µM, is required.

// solved cases for IC50 follow
INSERT INTO assay_data (molecule, numeric_readout) VALUES
  ('CCc1nnc(CN2CC3COCCN3c3nc(-c4cccc5[nH]ccc45)ncc32)o1 (centres unmarked)', 0.01),
  ('c1cc(-c2ncc3c(n2)N2CCOCC2CN3CC2CC2)c2cc[nH]c2c1 (centres unmarked)', 0.00501);

# return IC50 of CNC(=O)Nc1ccc(-c2ncc3c(n2)N2CCOCC2C(=O)N3C2CCc3ccc(Cl)cc32)cc1 (centres unmarked) (system: PI3Kδ (Homo sapiens, UniProt O00329))
0.02

# return IC50 of CCOC(=O)c1cccc(N2C[C@@H]3COCCN3c3nc(-c4cccc5[nH]ccc45)ncc32)c1 (system: PI3Kδ (Homo sapiens, UniProt O00329))
0.0251

# return IC50 of CNC(=O)Nc1ccc(-c2ncc3c(n2)N2CCOC[C@@H]2C(=O)N3C2CCOCC2)cc1 (system: PI3Kδ (Homo sapiens, UniProt O00329))
0.00251

# return IC50 of c1cc(-c2ncc3c(n2)N2CCOC[C@H]2CN3C2CCOCC2)c2cc[nH]c2c1 (system: PI3Kδ (Homo sapiens, UniProt O00329))
0.00316

# return IC50 of CS(=O)(=O)c1ccc(CN2C(=O)C3COCCN3c3nc(-c4ccc(F)c5[nH]ccc45)ncc32)cc1 (centres unmarked) (system: PI3Kδ (Homo sapiens, UniProt O00329))
0.02

# return IC50 of O=C(CN1C[C@@H]2COCCN2c2nc(-c3ccc(F)c(CO)c3)ncc21)NCC1CCOCC1 (system: PI3Kδ (Homo sapiens, UniProt O00329))
0.251

* * *

TGT: PI3Kδ (Homo sapiens)
Construct: The protein is full length and co-expressed with untagged PIK3R1; GST; purchased Invitrogen PV5274
ASSAY COMMENT: PI3Kδ inhibition, modified PIK3CD Adapta TR-FRET assay
Type: biochemical
ASSAY CONTEXT: recombinant GST-tagged full length PIK3CD co-expressed with PIK3R1 (p85α); 2 μM ATP, 50 μM PIP2; read-out: PI3Kδ Inhibition (pIC50) (converted)
MEASURE NAME: log10 of IC50 (log10 of the value in nM)
In our notation, the value equals log10 of IC50 in nM.

INSERT INTO measurements (compound, numeric_readout) VALUES
  ('CS(=O)(=O)c1ccc(CN2CC3COCCN3c3nc(-c4cncc5[nH]ccc45)ncc32)cc1 (centres unmarked)', 0.70),
  ('CC(C)(O)CCN1C[C@@H]2COCCN2c2nc(-c3cncc4[nH]ccc34)ncc21', 0.80),
  ('CC(=O)Nc1ccc(-c2ncc3c(n2)N2CCOCC2C(=O)N3Cc2ccc(S(C)(=O)=O)cc2)cc1 (centres unmarked)', 1.50),
  ('CS(=O)(=O)c1ccc(CN2C(=O)C3COCCN3c3nc(-c4cnc5[nH]ccc5c4)ncc32)cc1 (centres unmarked)', 1.50),
  ('Cc1nc(-c2cccc3[nH]ccc23)nc2c1N(CC1CC1)CC1COCCN21 (centres unmarked)', 2.40);

Note log10 of IC50 for the compound shown: CS(=O)(=O)Nc1cccc(-c2ncc3c(n2)N2CCOCC2C(=O)N3Cc2ccc(S(C)(=O)=O)cc2)c1 (centres unmarked)
2.90

Note log10 of IC50 for the compound shown: CNC(=O)Nc1ccc(-c2ncc3c(n2)N2CCOCC2C(=O)N3Cc2ccc(S(C)(=O)=O)cc2)cc1 (centres unmarked)
-0.10

Note log10 of IC50 for the compound shown: N#Cc1ccc(F)cc1CN1CC2COCCN2c2nc(-c3cccc4[nH]ccc34)ncc21 (centres unmarked)
2.50

Data provenance: patent US8791107B2
